# protocolText: viability gain of MRP-1-high H69AR cells under doxorubicin, pilot screen, MRP-1 activator project, CellTiter-Glo, duplicate (AID 807);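 note: compound pretreatment 18-22 h then 72 h combined with doxorubicin; 0% = doxorubicin alone and 100% = vehicle without doxorubicin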
# experimentalParameters: H69AR viability with doxorubicin, CellTiter-Glo luminescence; at 10 µM; active compounds read high
For each entry below, report its viability increase value.
One number for each entry, in %.

Answer for every listed entry: what is its viability increase? The entries follow.
1. Cc1ccc(S(=O)(=O)N2CCC(C(=O)N[C@@H](C)C(=O)NCC3CCCO3)CC2)cc1 (stereo partly drawn)
2. O=C(NCc1cccc(F)c1)c1noc2c1CCCC2
3. CCOc1ccc(Nc2cc(C)nc3nc(C)nn23)cc1
4. CCSc1sccc1C1C(C#N)=C(N)N(c2cccnc2)C2=C1C(=O)CC(C)(C)C2 (stereo not drawn)
5. CCNC(=O)c1c(N)sc2c1CCCCC2

1: -2.65; 2: -4.68; 3: -3.11; 4: -6.56; 5: -2.57

Kindly give each listed record's viability increase.
1. Cc1cc(SCC(=O)OCC(=O)N2CCN(C(=O)c3ccco3)CC2)c(C)cc1Br
2. COc1cccc2c(=O)n(CC(=O)NC3CCCCC3)ccc12
3. O=c1c2c3c(sc2nc2n1CCCCC2)CCCC3
4. COc1cc2c(cc1OC)C(c1cccs1)NCC2 (stereo not drawn)

-2.19
-1.27
-1.02
-3.87
